Test system: SEM cells
Experiment: AUC of viability dose-response curve (% viability x log10 dose units); higher = less sensitive
Details: RPMI 5 mM glucose + 10% dialyzed FBS; 48 h
Please provide measured AUC of viability dose-response curve for the entries that follow.
Give bare numbers.

Completed entries (count: 5):
* O=S(=O)([O-])CCS.[Na+] | 405
* COc1cc([C@@H]2c3cc4c(cc3[C@H](O)[C@H]3COC(=O)[C@@H]23)OCO4)cc(OC)c1OC | 249
* C[C@@H]1C/C=C/C=C/C=C/C=C/[C@@H](O[C@@H]2O[C@H](C)[C@@H](O)[C@H](N)[C@@H]2O)C[C@@H]2O[C@](O)(C[C@@H](O)C[C@@H]3O[C@H]3/C=C/C(=O)O1)C[C@H](O)[C@H]2C(=O)O | 462
* [O-]C(=O)C/1=N/C(=O)NC(=O)N1 | 438
* O=C(N[C@@H](c1ccccc1)[C@@H]1CCCCN1)c1cccc(C(F)(F)F)c1Cl | 407

// each compound listed below needs its AUC of viability dose-response curve
1. COc1cc([C@@H](CC(=O)O)c2ccc(C)c(CN3C[C@@H](C)Oc4ccccc4[S+]3(=O)[O-])c2)cc2nnn(C)c12
2. CC1(CN2CCC(n3c(=O)[nH]c4ccccc43)CC2)OCc2ccccc2-n2cccc21 (centres undefined)
3. COC(=O)Nc1nc2cc(C(=O)c3ccc(F)cc3)ccc2[nH]1
4. O=C1CCC[C@@H]2[C@H]3CCCN4CCC[C@@H](CN12)[C@@H]34
5. O=C(Nc1nnc(-c2ccco2)o1)c1cc(-c2ccccc2)nc2ccccc12
6. C[C@H]1C[C@H]2[C@@H]3CC[C@](O)(C(=O)CO)[C@@]3(C)C[C@H](O)[C@@H]2[C@@]\4(C)/C=C\C(=O)\C=C14

1. 367
2. 470
3. 374
4. 347
5. 443
6. 352
